Where these numbers come from: ChEMBL document CHEMBL1201862

Activity calls are given as the source filed them.
Dear all, this message contains AC50 results, target or system Cytochrome P450 2C9 (Homo sapiens, UniProt P11712).

Consider the reported AC50 for these compounds:
Cc1cc(NC(=S)NC(=O)CC(C)C)ccc1Br: 0.0447 µM (inconclusive)
Cc1cc(C(F)(F)F)nn1CC(=O)Nc1cccnc1: 39.8 µM (inconclusive)
CC1=C(C(=O)OCc2ccccc2)C(c2ccccc2)NC(=O)N1CCCCCC(=O)O (configuration not stated): 25.1 µM (inconclusive)
CC(C)C(C(=O)NCC1CCCO1)N(Cc1ccco1)C(=O)CNS(=O)(=O)c1ccc(F)cc1 (configuration not stated): 39.8 µM (inconclusive)
O=C(NC1CCCCC1)C12CC3CC(C1)CC(n1cncn1)(C3)C2: 5.01 µM (inconclusive)

Can you share its AC50? I mean this compound: CCO/C(O)=C1/C(C)=Nc2ncnn2C1c1cccnc1 (configuration not stated) 25.1 µM (inconclusive)

Also `Clc1ccccc1-c1cncnc1NCc1cccs1` , if possible. 0.794 µM (inconclusive)

One more compound: `CN(Cc1cc(Cl)cc(Cl)c1O)Cc1c(O)ccc2ccccc12` 3.16 µM (inconclusive)

Proceed to `CCC(CC)c1nnc(NC(=O)c2ccc3ccccc3n2)s1` 7.94 µM (active)

Request: `O=S1(=O)C=C(N2CCOCC2)c2ccccc21` 39.8 µM (inconclusive)

Here is the next compound: `COCCNC(=O)COC(=O)/C=C/c1cnc2ccccc2n1` 1.12 µM (inconclusive)

Can you check `CCOc1cc(CNCCO)cc(Br)c1OCc1ccccc1Cl` next? 28.2 µM (inconclusive)

---

# IC50 per entry
# tested_target: Corticotropin-releasing factor receptor 2/Corticotropin-releasing factor-binding protein (Homo sapiens, UniProt P24387+Q13324)
# Sequence (Q13324 whole entry): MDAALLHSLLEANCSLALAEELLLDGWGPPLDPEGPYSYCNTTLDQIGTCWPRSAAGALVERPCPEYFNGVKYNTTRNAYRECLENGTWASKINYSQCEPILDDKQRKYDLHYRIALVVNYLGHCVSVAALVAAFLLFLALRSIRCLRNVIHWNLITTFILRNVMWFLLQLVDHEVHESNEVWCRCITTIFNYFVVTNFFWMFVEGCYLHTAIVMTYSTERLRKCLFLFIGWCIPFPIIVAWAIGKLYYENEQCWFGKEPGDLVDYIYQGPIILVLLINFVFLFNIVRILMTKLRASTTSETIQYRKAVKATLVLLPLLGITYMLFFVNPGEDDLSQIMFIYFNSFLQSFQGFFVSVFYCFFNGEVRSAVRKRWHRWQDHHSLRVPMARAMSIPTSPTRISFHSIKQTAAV
# Sequence (P24387 whole entry): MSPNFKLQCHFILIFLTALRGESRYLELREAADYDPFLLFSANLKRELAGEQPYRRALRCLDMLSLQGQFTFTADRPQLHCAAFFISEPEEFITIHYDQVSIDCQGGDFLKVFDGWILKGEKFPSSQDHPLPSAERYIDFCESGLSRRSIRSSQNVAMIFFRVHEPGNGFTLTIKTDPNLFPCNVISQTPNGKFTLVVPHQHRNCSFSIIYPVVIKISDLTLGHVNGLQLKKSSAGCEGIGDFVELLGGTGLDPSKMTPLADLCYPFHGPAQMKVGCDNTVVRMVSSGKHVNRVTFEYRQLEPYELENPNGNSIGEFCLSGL
# test_protocol: Dose Response confirmation of uHTS hits for small molecule antagonists of the CRF-binding protein and CRF-R2 receptor complex.
# Assay type: functional
# experimental_setup: read-out: IC50_Mean
The source made the active and inactive calls.

Here are 3 compounds together with their reported answers.
Cc1ccc(SCC(=O)Nc2cc([N+](=O)[O-])ccc2O)cc1: 2.34 µM (active)
CC1C/C(=N\NC(=O)c2ccc([N+](=O)[O-])cc2)CC(C)(C)C1 (centres undefined): > 47.1 µM (inactive)
Cc1ccc(NC(=O)COC(=O)CCc2c[nH]c3ccccc23)c(C)c1: 4.32 µM (active)

Please look at the following compound next.
Entry `Cc1nc2ccccc2nc(C)c1=NOCc1ccccc1Cl` has what IC50? > 47.1 µM (inactive)

---

Measured EC50 values are reported for all entries that follow.
# System: Streptococcus
# test_protocol: GAS UMAA2166 growth inhibition – luminescence, BacTiterGlo, counter-screen for streptokinase expression inhibitor project, dose response (AID 1915);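 also: potency for reduction of bacterial viability or growth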
# Type: functional, organism-based
The source made the active and inactive calls.

COc1ccc2nc(Nc3nc(C)c(C(C)=O)s3)sc2c1: 17.8 µM (active)
Cc1onc(-c2ccccc2)c1C(=O)NNC(=S)NC(=O)/C=C/c1cccs1: 2.02 µM (active)
Cc1ccc(Cc2cnc(N3C(=N)SC(C)C3=O)s2)cc1 (stereo not drawn): 3.44 µM (active)
CCC(=O)Oc1ccc(-c2nc(-c3cccnc3)no2)cc1: 9.17 µM (active)
Cc1cc(C(=O)N/N=C/c2cc(Br)cc([N+](=O)[O-])c2O)c2ccccc2n1: 1.5 µM (active)
N#C/C(=N\Nc1ccc(S(=O)(=O)N2CCc3ccccc32)cc1)C(N)=S: 40 µM (active)
O=C1NC(=S)N(C2CCCCC2)C(=O)/C1=C/NNC(=O)c1ccccc1: 8.22 µM (active)

Would you mind telling me what EC50 value was observed for CC(=O)N1c2ccc(S(=O)(=O)N3CCC(C(=O)Nc4cc(C)ccn4)CC3)cc2CC1C (stereo not drawn) ? > 150 µM (not active)
